system: WHIM30 (cells of a triple-negative basal-like breast cancer xenograft); assay: cell viability (% of vehicle); higher = less cytotoxic; settings: 10 µM; 72 h;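 note: PDX cells carrying CMV promoter-driven luciferase, viability read as total photon flux per second by IVIS imaging following D-luciferin, vehicle control 0.1% DMSO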
I'd appreciate it if you marked entries y when cell viability is lower than 100 and n when it is not.

Completed entries (count: 3):
[[record]]
molecule = "O=C1Nc2ccc(Cl)cc2C(C#CC2CC2)(C(F)(F)F)O1 (stereo unspecified)"
label_class = "y"

[[record]]
molecule = "CCC(C)C(=O)OC1CCC=C2C=CC(C)C(CCC3CC(O)CC(=O)O3)C21 (stereo unspecified)"
label_class = "n"

[[record]]
molecule = "CC(C)CC(NC(=O)CNC(=O)c1cc(Cl)ccc1Cl)B(O)O (stereo unspecified)"
label_class = "y"


Prompt: Check if cell viability falls below 100 for CC(C)(Sc1cc(C(C)(C)C)c(O)c(C(C)(C)C)c1)Sc1cc(C(C)(C)C)c(O)c(C(C)(C)C)c1 .
Response: n

Prompt: Check if cell viability falls below 100 for NC(=O)NO [Hydroxyurea] .
Response: n

Prompt: Check if cell viability falls below 100 for Cc1ccsc1C(=CCCN1CCC[C@@H](C(=O)O)C1)c1sccc1C [Tiagabine] .
Response: y

Prompt: Check if cell viability falls below 100 for Clc1ccc(COC(Cn2ccnc2)c2ccc(Cl)cc2Cl)cc1.O=[N+]([O-])O (stereo unspecified) [Econazole nitrate] .
Response: y

Prompt: Check if cell viability falls below 100 for CC1=C(C(=O)OC(C)C)C(c2cccc([N+](=O)[O-])c2)C(C(=O)OC2CN(C(c3ccccc3)c3ccccc3)C2)=C(N)N1 (stereo unspecified) .
Response: y

Prompt: Check if cell viability falls below 100 for CC(O)C1C(=O)N2C(C(=O)O)=C(SC3CNC(C(=O)N(C)C)C3)C(C)C12 (stereo unspecified) .
Response: n

---

test system: HCI01 (cells of a triple-negative basal-like breast cancer xenograft); assay: cell viability (% of vehicle); higher = less cytotoxic; details: 10 µM; 72 h
Quick list: cell viability per entry.
Write the value as a bare number.

# annotated cases, reported cell viability shown
[[record]]
compound = "Cc1nccn1CC1CCc2c(c3ccccc3n2C)C1=O.Cl.O.O (stereo not drawn) [Ondansetron hydrochloride dihydrate]"
measured = 101

[[record]]
compound = "Cc1cccc(Nc2ccncc2S(=O)(=O)NC(=O)NC(C)C)c1 [Torsemide]"
measured = 84.3

[[record]]
compound = "Cn1c(=O)cc(N2CCCC(N)C2)n(Cc2ccccc2C#N)c1=O (stereo not drawn) [Alogliptin (SYR-322)]"
measured = 118


Prompt: Return cell viability for the following compound: Oc1ccc(OCc2ccccc2)cc1
Response: 187

Prompt: Return cell viability for the following compound: Nc1ccn(C2OC(CO)C(O)C2(F)F)c(=O)n1 (stereo not drawn)
Response: 70.3

Prompt: Return cell viability for the following compound: CC1(C)O[C@@H]2C[C@H]3[C@@H]4CCC5=CC(=O)C=C[C@]5(C)[C@@]4(F)[C@@H](O)C[C@]3(C)[C@]2(C(=O)CO)O1 [Triamcinolone Acetonide]
Response: 147

---

test system: HCI11 (cells of an ER-positive luminal breast cancer xenograft); assay: cell viability (% of vehicle); higher = less cytotoxic; details: 10 µM; 72 h
attribute-measured: cell viability
Write the value as a bare number.

# annotated cases, reported cell viability shown
[[record]]
compound = "CC(=O)OC1CCC2(C)C(=CCC3C2CCC2(C)C(c4cccnc4)=CCC32)C1 (centres undefined) [Abiraterone acetate]"
system_name = "HCI11"
attribute_measured = "cell viability"
measured = 88.7

[[record]]
compound = "Cc1cn(-c2cc(NC(=O)c3ccc(C)c(Nc4nccc(-c5cccnc5)n4)c3)cc(C(F)(F)F)c2)cn1"
system_name = "HCI11"
attribute_measured = "cell viability"
measured = 76.6

[[record]]
compound = "COc1ccc(C2Sc3ccccc3N(CCN(C)C)C(=O)C2OC(C)=O)cc1.Cl (centres undefined) [Diltiazem HCl]"
system_name = "HCI11"
attribute_measured = "cell viability"
measured = 88.9

[[record]]
compound = "Nc1ccc(C(=O)[O-])c(O)c1.O.O.[Na+] [Sodium 4-Aminosalicylate]"
system_name = "HCI11"
attribute_measured = "cell viability"
measured = 95.3

[[record]]
compound = "Cc1cc(Nc2cc(N3CCN(C)CC3)nc(Sc3ccc(NC(=O)C4CC4)cc3)n2)n[nH]1"
system_name = "HCI11"
attribute_measured = "cell viability"
measured = 133

[[record]]
compound = "CN(C)CCCC1(c2ccc(F)cc2)OCc2cc(C#N)ccc21.O=C(O)C(=O)O (centres undefined) [Escitalopram Oxalate]"
system_name = "HCI11"
attribute_measured = "cell viability"
measured = 86.2

[[record]]
compound = "Cl.NC1=NCC2c3ccccc3Cc3ccccc3N12 (centres undefined) [Epinastine HCl]"
system_name = "HCI11"
attribute_measured = "cell viability"
measured = 95.5

[[record]]
compound = "CCCCCCCCCC(=O)NC(Cc1c[nH]c2ccccc12)C(=O)NC(CC(N)=O)C(=O)NC(CC(=O)O)C(=O)NC1C(=O)NCC(=O)NC(CCCN)C(=O)NC(CC(=O)O)C(=O)NC(C)C(=O)NC(CC(=O)O)C(=O)NCC(=O)NC(CO)C(=O)NC(C(C)CC(=O)O)C(=O)NC(CC(=O)c2ccccc2N)C(=O)OC1C (centres undefined)"
system_name = "HCI11"
attribute_measured = "cell viability"
measured = 113

[[record]]
compound = "CC(C)NCC(O)COc1ccc(CCOCC2CC2)cc1.Cl (centres undefined) [Levobetaxolol HCl]"
system_name = "HCI11"
attribute_measured = "cell viability"
measured = 105

[[record]]
compound = "Cl.NCCc1ccc(O)c(O)c1 [Dopamine HCl]"
system_name = "HCI11"
attribute_measured = "cell viability"
measured = 84.4


Prompt: Return cell viability for the following compound: COC(=O)C1=COC(OC2OC(CO)C(O)C(O)C2O)C2C(CO)=CCC12 (centres undefined) [Geniposide]
Response: 98.3

Prompt: Return cell viability for the following compound: N.N.O=C([O-])C1(C(=O)[O-])CCC1.[Pt+2]
Response: 86.4

Prompt: Return cell viability for the following compound: CCC(C)C(=O)OC1CC(O)C=C2C=CC(C)C(CCC(O)CC(O)CC(=O)[O-])C21.[Na+] (centres undefined) [Pravastatin sodium]
Response: 113

Prompt: Return cell viability for the following compound: Cl.NC12CC3CC(CC(C3)C1)C2 [Amantadine HCl]
Response: 98.7
